// values below are reported PBM binding z-score
System: THRa homodimer (NR concentration 90 nM)
Experiment: PBM binding z-score (relative to random genomic background probes); higher = stronger binding; sequences stand for … in GC…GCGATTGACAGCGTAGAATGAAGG
Write no unit; give the number alone.

Past entries and their recorded results:
-- ask Request body: readout PBM binding z-score, system THRa homodimer (NR concentration 90 nM), query `ATGTGTAGGTTAAGGGTCATTCAGGTTGGTTCGC` . Return the value.
-- reply 2.32

-- ask Report PBM binding z-score for `AGAACGAGGGCACGCTGAGTTGATCGCAGAGTAG` tested on THRa homodimer (NR concentration 90 nM).
-- reply -0.239

-- ask Can you look up PBM binding z-score on THRa homodimer (NR concentration 90 nM) for `AGAATGAGCTTAAGATCAGGGAAACAGAATACAT` ?
-- reply -0.875

-- ask Tell me reported PBM binding z-score for `ATCTCTAGGTAAGACACAGTTCAGTGAAGAACGC` , tested with THRa homodimer (NR concentration 90 nM).
-- reply 0.689

-- ask PBM binding z-score of `AGTCAGAGTTCAGGACGAGGTAACGTAAAGCACG` on THRa homodimer (NR concentration 90 nM)?
-- reply 1.53

Now consider the entry below.
-- ask Which measured PBM binding z-score belongs to `CCTACTGGGCCCAGGTCATTGATCAGTCAAAGCA` , tested on THRa homodimer (NR concentration 90 nM)?
-- reply 2.15
